System: HIV-1 NNRTI-resistant mutant K103N
Experiment: Single-round infectivity assay, K103N
Assay type: cell-based
Settings: Human immunodeficiency virus 1, read-out: EC50 K103N
So I've got a bunch of compounds here, and I need their EC50 values.
The figure you give is taken to be in nM; do not add the unit.

Fill in the blank: the reported EC50 of O=C1Nc2ccc(Cl)cc2[C@@](C#CC2CC2)(C(F)(F)F)O1 [EFV, efavirenz, reference compound] is ____. 35.8

Fill in the blank: the reported EC50 of Cc1cc(/C=C/C#N)cc(C)c1Nc1nc(Nc2ccc3cc(C#N)ccc3c2)ncc1N [Compound 7] is ____. 4

Fill in the blank: the reported EC50 of Cc1cc(/C=C/C#N)cc(C)c1Nc1ncc2ncn(-c3c(C)cc(/C=C/C#N)cc3C)c2n1 [Compound 9] is ____. 48

Fill in the blank: the reported EC50 of Cc1cc(/C=C/C#N)cc(C)c1Nc1nc(Nc2ccc3cc(/C=C/C#N)ccc3c2)ncc1N [Compound 8] is ____. 121

Fill in the blank: the reported EC50 of Cc1cc(/C=C/C#N)cc(C)c1Nc1nc(Nc2ccc(/C=C/C#N)cc2)ncc1N [Compound 12] is ____. 1.6

Fill in the blank: the reported EC50 of Cc1cc(/C=C/C#N)cc(C)c1Nc1ncc(N)c(Nc2c(C)cc(/C=C/C#N)cc2C)n1 [Compound 6] is ____. 75.5

Fill in the blank: the reported EC50 of Cc1cc(/C=C/C#N)cc(C)c1-n1cnc2cnc(Nc3ccc4cc(C#N)ccc4c3)nc21 [Compound 10] is ____. 24.5

Fill in the blank: the reported EC50 of Cc1cc(/C=C/C#N)cc(C)c1-n1cnc2cnc(Nc3ccc(/C=C/C#N)cc3)nc21 [Compound 13] is ____. 9.3

Fill in the blank: the reported EC50 of Cc1cc(/C=C/C#N)cc(C)c1Nc1ccnc(Nc2ccc(C#N)cc2)n1 [RPV, rilpivirine, reference compound] is ____. 1

Fill in the blank: the reported EC50 of Cc1cc(/C=C/C#N)cc(C)c1-n1cnc2cnc(Nc3ccc4cc(/C=C/C#N)ccc4c3)nc21 [Compound 11] is ____. 232

Fill in the blank: the reported EC50 of Cn1c(Cn2ccc(C(F)(F)F)c(Oc3cc(Cl)cc(C#N)c3)c2=O)n[nH]c1=O [DOR, doravirine, reference compound] is ____. 4.5

The measurements presented in this section are drawn from paper PMC7821153.
